- System: MOLT-4 leukemia
- protocol-details: NCI tumour cell line growth inhibition, 48 h
attribute-measured: TGI

{"columns": ["molecule", "TGI"],
 "data": [
  ["N#C/C(=C/Sc1ccccc1)C(=O)O", "> 100 µM"]
]}

Query: Reported TGI for COC(=O)c1ccc(Cl)cc1NC(=O)C1CCCCC1 : what is it?
Result: > 100 µM

Query: Reported TGI for CNC(=O)CN(C)C(=O)CCC(=O)N(C)C : what is it?
Result: > 100 µM

Query: Reported TGI for O=C1OCc2cc3cc4c(cc3c(-c3ccc5c(c3)OCO5)c21)OCO4 (tested in a mixture with another compound) : what is it?
Result: 72.5 µM

Query: Reported TGI for O=c1c2c3c(sc2nc(N/N=C/c2ccc(Br)cc2)n1Cc1ccccc1)CCCC3 : what is it?
Result: > 100 µM

Query: Reported TGI for C/C(=C(\c1ccc(OCCN2CCCCCC2)cc1)c1ccc(OC(=O)Cc2ccccc2)cc1)c1ccc(Cl)cc1 : what is it?
Result: 13.4 µM

* * *

// values below are reported GI50
- Test system: OVCAR-4 ovarian
- protocol-details: NCI tumour cell line growth inhibition, 48 h

Below are worked cases with known answers.
{"columns": ["molecule", "attribute-measured", "endpoint-value"],
 "data": [
  ["Cc1cc(O)cc(C)c1/C=C/c1cncc(-c2nn[nH]n2)c1", "GI50", "> 25 µM"],
  ["C=CN(C)S(C)(=O)=O", "GI50", "> 100 µM"]
]}

Query: Notebook entry, OVCAR-4 ovarian assay: GI50 of COc1ccc(-c2cc(-c3ccc(O)cc3)nc3n[nH]c(N)c23)cc1 = ?
Result: 43.3 µM

Query: Notebook entry, OVCAR-4 ovarian assay: GI50 of O=C1OC(c2ccccc2)(c2cc(Br)c(O)c(Br)c2)c2ccccc21 (stereo unspecified) = ?
Result: 22.7 µM

Query: Notebook entry, OVCAR-4 ovarian assay: GI50 of C[n+]1ccc(-c2c3nc(c(-c4cc[n+](C)cc4)c4ccc([n-]4)c(-c4cc[n+](C)cc4)c4nc(c(-c5cc[n+](C)cc5)c5ccc2[n-]5)C=C4)C=C3)cc1.[I-].[Zn+2] = ?
Result: 2.43 µM

Query: Notebook entry, OVCAR-4 ovarian assay: GI50 of CC/C(=C(/c1ccc(O)cc1)c1ccc(OCCN2CCCCC2)cc1)c1ccc(OC)cc1 = ?
Result: 1.88 µM

* * *

- Test system: KM12 colon
- protocol-details: NCI tumour cell line growth inhibition, 48 h; in the data active = GI50 below about 0.43 µM; inactive = the rest
Please state which outcome applies, choosing from active, inactive

// below: answered compounds
{"columns": ["compound", "label-value"],
 "data": [
  ["CCCCCCCCCCCCOC1C(C(CC(=O)N2CCN(c3cccc(C(F)(F)F)c3)CC2)NS(=O)(=O)c2cc(Cl)cc(Cl)c2)OC2OC(C)(C)OC21 (configuration not stated)", "inactive"],
  ["CN1CC(CNC(=O)OCc2ccccc2)CC2c3cccc4c3c(cn4C)CC21 (configuration not stated)", "inactive"],
  ["C=C(C)[C@@H]1CC[C@]2(CO)CC[C@]3(C)[C@H](CC[C@@H]4[C@@]5(C)CCC(NCCc6ccc(O)cc6)C(C)(C)[C@@H]5CC[C@]43C)[C@@H]12 (some centres not stated)", "inactive"],
  ["CNC(=O)Oc1cc(C)c(/C=C/c2cncc(C(=O)NC)c2)c(C)c1", "inactive"],
  ["C=C(CN1CCN(c2cccc(C(F)(F)F)n2)CC1)c1ccc(C(=S)Nc2ccccc2N)cc1", "inactive"],
  ["O=C1OC(c2ccccc2)(c2cc(Br)c(O)c(Br)c2)c2ccccc21 (configuration not stated)", "inactive"]
]}

Query: Entry COc1cc(-c2nn(-c3cccc(NC(=O)c4ccc(N5CCOCC5)c(C(F)(F)F)c4)c3)cc2-c2ccncc2)ccc1Cl : call = ?
Result: active

Sourced from PubChem BioAssay (NCI)
